target: PKR R510Q (Homo sapiens, UniProt P30613, R510Q); assay: PKR Mutant Assay, AC50 against PKR R510Q; type: biochemical; details: mutant PKR R510Q enzyme
Sequence (P30613 whole entry R510Q): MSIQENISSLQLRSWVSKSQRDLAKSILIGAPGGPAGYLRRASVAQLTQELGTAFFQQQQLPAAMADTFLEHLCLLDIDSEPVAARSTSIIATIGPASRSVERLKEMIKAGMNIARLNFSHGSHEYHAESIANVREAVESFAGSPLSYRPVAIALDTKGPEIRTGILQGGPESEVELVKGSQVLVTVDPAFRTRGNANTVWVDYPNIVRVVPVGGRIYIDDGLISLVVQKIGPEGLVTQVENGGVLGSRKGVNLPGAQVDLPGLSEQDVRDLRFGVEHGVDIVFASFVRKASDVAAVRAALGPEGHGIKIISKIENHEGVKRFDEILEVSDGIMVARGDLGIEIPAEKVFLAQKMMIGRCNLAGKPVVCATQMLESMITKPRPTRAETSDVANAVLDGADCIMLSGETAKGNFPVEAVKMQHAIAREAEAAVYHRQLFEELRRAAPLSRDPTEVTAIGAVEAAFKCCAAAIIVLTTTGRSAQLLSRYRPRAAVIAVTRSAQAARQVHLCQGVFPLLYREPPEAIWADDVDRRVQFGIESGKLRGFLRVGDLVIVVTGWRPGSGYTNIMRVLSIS
Measured Property: AC50

Take a look at these entries with their results.
Substance Smiles	AC50
O=C(c1ccc(NS(=O)(=O)c2cccc3scnc23)cc1)N1CCC(O)(c2ccccc2-c2ccccc2Cl)CC1	1010 to 10000 nM
CC(C)CC1(O)CCN(C(=O)c2ccc(NS(=O)(=O)c3ccc(F)c4nccnc34)cc2)CC1	101 to 1000 nM

Please look up its AC50: `O=C(c1ccc(NS(=O)(=O)c2cccc3cccnc23)cc1)N1CCC(O)(Cc2c(F)cccc2F)CC1` < 100 nM

Queued: `CC(F)(F)CCC1(O)CCN(C(=O)c2ccc(NS(=O)(=O)c3cccc4nccnc34)cc2OC(F)F)CC1` 101 to 1000 nM

Queued: `Cc1cccc(CC2(O)CCN(C(=O)c3ccc(NS(=O)(=O)c4cccc5cccnc45)cc3)CC2)c1` 101 to 1000 nM

Queued: `O=C(c1ccc(NS(=O)(=O)c2cccc3nccnc23)cc1)N1CCC(O)(CCC=C(F)F)CC1` < 100 nM

Queued: `O=C(c1ccc(NS(=O)(=O)c2cccc3cccnc23)cc1)N1CCC(O)(CCC(F)F)CC1` 101 to 1000 nM

---

biological target: PKR WT (Homo sapiens); experiment: PKR WT enzymatic AC50 assay; format: biochemical; conditions: wild type PKR
Listed here are compounds together with their documented AC50.

Take a look at these entries with their results.
Substance Smiles	Study System	AC50
CC(C)CC1(O)CCN(C(=O)c2ccc(NS(=O)(=O)c3ccc(F)c4nccnc34)cc2)CC1	PKR WT (Homo sapiens)	101 to 1000 nM
O=C(c1ccc(NS(=O)(=O)c2cccc3cccnc23)cc1)N1CCC(O)(CCCO)CC1	PKR WT (Homo sapiens)	101 to 1000 nM
CC(C)CCC1(O)CCN(C(=O)c2ccc(NS(=O)(=O)c3cccc4scnc34)cc2)CC1	PKR WT (Homo sapiens)	< 100 nM

Record lookup: for PKR WT (Homo sapiens), what AC50 belongs to `CC(C)CC1(O)CCN(C(=O)c2ccc(NS(=O)(=O)c3ccc(O)c4nccnc34)cc2)CC1` ? 101 to 1000 nM

Queued: `CC(C)CC1(O)CCN(C(=O)c2ccc(NS(=O)(=O)c3cc(F)cc4sc(N)nc34)cc2)CC1` < 100 nM

Queued: `COc1ncccc1C1(O)CCN(C(=O)c2ccc(NS(=O)(=O)c3cccc4cccnc34)cc2)CC1` < 100 nM

Queued: `Nc1c(F)ccc(S(=O)(=O)Nc2ccc(C(=O)N3CCC(O)(c4ccccc4Cl)CC3)cc2)c1N` 101 to 1000 nM

---

biological target: PKR R510Q (Homo sapiens, UniProt P30613, R510Q); test: PKR Mutant Assay, AC50 against PKR R510Q; type: biochemical; conditions: mutant PKR R510Q enzyme
Listed here are molecules together with their documented AC50.

Molecule	AC50
CC(C)C1(O)CCN(C(=O)c2ccc(NS(=O)(=O)c3cccc4cccnc34)cc2)CC1 [Compound 214]	101 to 1000 nM
CC(CC1(O)CCN(C(=O)c2ccc(NS(=O)(=O)c3cccc4scnc34)cc2)CC1)C(F)(F)F (stereo not shown) [Compound 391]	< 100 nM
O=C(c1ccc(NS(=O)(=O)c2cc(F)cc3cccnc23)cc1)N1CCC(O)(c2ccccc2Cl)CC1 [Compound 223]	101 to 1000 nM

Please look up its AC50: COc1cc(NS(=O)(=O)c2cccc3cccnc23)ccc1C(=O)N1CCC(O)(c2ccccc2Cl)CC1 [Compound 170] 101 to 1000 nM

---

target: PKR R510Q (Homo sapiens, UniProt P30613, R510Q); assay: PKR Mutant Assay, AC50 against PKR R510Q; format: biochemical; conditions: mutant PKR R510Q enzyme
Measured Property: AC50

Take a look at these entries with their results.
Compound	AC50
CC(C)CC1(O)CCN(C(=O)c2ccc(NS(=O)(=O)c3cc(F)cc4sc(N)nc34)cc2)CC1 [Compound 145]	< 100 nM
Cc1cc(C(=O)N2CCC(O)(c3cccc(F)c3F)CC2)ccc1NS(=O)(=O)c1cccc2nccnc12 [Compound 175]	101 to 1000 nM
O=C(c1ccc(NS(=O)(=O)c2cccc3cccnc23)cc1)N1CCC(O)(CCO)CC1 [Compound 274]	1010 to 10000 nM
Nc1nc2c(S(=O)(=O)Nc3ccc(C(=O)N4CCC(O)(c5ccccc5Cl)CC4)cc3)cccc2s1 [Compound 407]	< 100 nM

Please look up its AC50: CC(C)CC1(O)CCN(C(=O)c2ccc(NS(=O)(=O)c3cccn4ccnc34)cc2)CC1 [Compound 312] > 10000 nM

Queued: O=C(c1ccc(NS(=O)(=O)c2cccc3ncccc23)cc1)N1CCC(O)(c2ccccc2)CC1 [Compound 300] > 10000 nM

Queued: CC(C)CC1(O)CCN(C(=O)c2ccc(NS(=O)(=O)c3ccc(F)c4scnc34)cc2)CC1 [Compound 240] 101 to 1000 nM

---

Listed here are compounds together with their documented AC50.
Target: PKR WT (Homo sapiens)
Test: PKR WT enzymatic AC50 assay
Assay type: biochemical
Conditions: wild type PKR
Experimental: • PKR or PKR mutant enzyme solution was diluted in assay buffer. • 2 μL of test compound was added into wells first, and then 180 μL reaction mix was added. • Reactions mixture with test compound was assembled except for ADP, and plates were stored for 60 minutes at room temperature. • 20 uL ADP was added to start reaction at room temperature and reaction progress was measured as changes in absorbance at 340 nm wavelength at room temperature. […]

Take a look at these entries with their results.
Compound	Study System	AC50
O=C(c1ccc(NS(=O)(=O)c2cccc3nccnc23)cc1)N1CCC(O)(c2ccccc2)CC1	PKR WT (Homo sapiens)	101 to 1000 nM
CC(C)CC1(O)CCN(C(=O)c2ccc(NS(=O)(=O)c3ccc(F)c4cccnc34)cc2)CC1	PKR WT (Homo sapiens)	< 100 nM
CC(O)CC1(O)CCN(C(=O)c2ccc(NS(=O)(=O)c3cccc4cccnc34)cc2)CC1 (stereo not drawn)	PKR WT (Homo sapiens)	101 to 1000 nM

Please look up its AC50: `CCCC1(O)CCN(C(=O)c2ccc(NS(=O)(=O)c3cccc4cccnc34)cc2)CC1` < 100 nM

Queued: `O=C(c1ccc(NS(=O)(=O)c2cccc3scnc23)cc1)N1CCC(O)(CCC=C(F)F)CC1` < 100 nM

Queued: CC(CC1(O)CCN(C(=O)c2ccc(NS(=O)(=O)c3cccc4c(O)ncnc34)cc2)CC1)C(F)(F)F (stereo not drawn) < 100 nM

Queued: `O=C(c1ccc(NS(=O)(=O)c2cccc3nccnc23)cc1)N1CCC(O)(c2ccccc2Cl)CC1` < 100 nM

---

Listed here are compounds together with their documented AC50.
molecular target: PKR WT (Homo sapiens, UniProt P30613); test: PKR WT cell based AC50 assay; conditions: wild type PKR
Sequence (P30613 whole entry): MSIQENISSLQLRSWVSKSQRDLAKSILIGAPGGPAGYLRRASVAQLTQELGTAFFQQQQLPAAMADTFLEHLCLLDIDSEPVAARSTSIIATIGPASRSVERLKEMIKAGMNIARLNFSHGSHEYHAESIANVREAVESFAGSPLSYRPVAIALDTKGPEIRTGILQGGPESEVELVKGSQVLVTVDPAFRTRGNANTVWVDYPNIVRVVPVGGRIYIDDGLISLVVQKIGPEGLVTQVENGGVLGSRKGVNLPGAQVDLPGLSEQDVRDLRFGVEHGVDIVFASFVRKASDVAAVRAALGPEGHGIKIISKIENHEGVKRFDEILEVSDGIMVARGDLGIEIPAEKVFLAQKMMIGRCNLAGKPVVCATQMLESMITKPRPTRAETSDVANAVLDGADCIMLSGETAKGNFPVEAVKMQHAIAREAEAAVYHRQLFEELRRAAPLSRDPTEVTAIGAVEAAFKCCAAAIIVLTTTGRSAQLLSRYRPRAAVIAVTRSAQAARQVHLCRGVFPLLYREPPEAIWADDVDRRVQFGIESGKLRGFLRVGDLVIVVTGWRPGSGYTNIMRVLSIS

Take a look at these entries with their results.
Compound	AC50
Cn1nccc1CC1(O)CCN(C(=O)c2ccc(NS(=O)(=O)c3cccc4scnc34)cc2)CC1	101 to 1000 nM
O=C(c1ccc(NS(=O)(=O)c2cccc3cccnc23)cc1)N1CCC(O)(c2ccncc2)CC1	< 100 nM
O=C(c1ccc(NS(=O)(=O)c2cccc3scnc23)cc1)N1CCC(O)(c2ccccc2C(F)F)CC1	101 to 1000 nM
CC(C)CC1(CO)CCN(C(=O)c2ccc(NS(=O)(=O)c3cccc4cccnc34)cc2)CC1	< 100 nM
CC(C)CC1(O)CCN(C(=O)c2ccc(NS(=O)(=O)c3cccc4sc(N)nc34)cc2)CC1	< 100 nM

Please look up its AC50: `O=C(c1ccc(NS(=O)(=O)c2cccc3cccnc23)cc1Cl)N1CCC(O)(c2ccccc2Cl)CC1` < 100 nM

Queued: `CC(C)(C)CC1(O)CCN(C(=O)c2ccc(NS(=O)(=O)c3ccc(F)c4cccnc34)cc2)CC1` < 100 nM

Queued: `Cc1nc(C2(O)CCN(C(=O)c3ccc(NS(=O)(=O)c4cccc5cccnc45)cc3)CC2)ccc1F` 101 to 1000 nM

Queued: `COCCC1(O)CCN(C(=O)c2ccc(NS(=O)(=O)c3cccc4cccnc34)cc2)CC1` 101 to 1000 nM

Queued: O=C(c1ccc(NS(=O)(=O)c2cccc3cccnc23)cc1)N1CCC(O)(c2cnsc2)CC1 [Compound 353] < 100 nM

Queued: `O=C(c1ccc(NS(=O)(=O)c2cccc3cccnc23)cc1)N1CCC(O)(Cc2ccccc2)CC1` < 100 nM

Queued: `CC(F)(F)CCC1(O)CCN(C(=O)c2ccc(NS(=O)(=O)c3cc(F)cc4sc(N)nc34)cc2)CC1` 101 to 1000 nM

Queued: `O=C(c1ccc(NS(=O)(=O)c2cccc3nccnc23)cc1)N1CCC(O)(c2ccccc2)CC1` < 100 nM

Queued: `CC(C)CC1(O)CCN(C(=O)c2ccc(NS(=O)(=O)c3cccc4ccc(N)nc34)cc2)CC1` < 100 nM

Queued: `Cc1cccc(CC2(O)CCN(C(=O)c3ccc(NS(=O)(=O)c4cccc5cccnc45)cc3)CC2)c1` < 100 nM

Queued: `O=C(c1ccc(NS(=O)(=O)c2cccc3ccoc23)cc1)N1CCC(O)(c2ccccc2Cl)CC1` 101 to 1000 nM

Queued: `O=C(c1ccc(NS(=O)(=O)c2cccc3cccnc23)cc1OC(F)(F)F)N1CCC(O)(c2ccccc2Cl)CC1` < 100 nM

Queued: `O=C(c1ccc(NS(=O)(=O)c2cccc3cccnc23)cc1)N1CCC(O)(c2ccccc2OC(F)(F)F)CC1` 101 to 1000 nM
